- Assayed system: 72 kDa type IV collagenase (Homo sapiens, UniProt P08253)
- Sequence (P08253 whole entry): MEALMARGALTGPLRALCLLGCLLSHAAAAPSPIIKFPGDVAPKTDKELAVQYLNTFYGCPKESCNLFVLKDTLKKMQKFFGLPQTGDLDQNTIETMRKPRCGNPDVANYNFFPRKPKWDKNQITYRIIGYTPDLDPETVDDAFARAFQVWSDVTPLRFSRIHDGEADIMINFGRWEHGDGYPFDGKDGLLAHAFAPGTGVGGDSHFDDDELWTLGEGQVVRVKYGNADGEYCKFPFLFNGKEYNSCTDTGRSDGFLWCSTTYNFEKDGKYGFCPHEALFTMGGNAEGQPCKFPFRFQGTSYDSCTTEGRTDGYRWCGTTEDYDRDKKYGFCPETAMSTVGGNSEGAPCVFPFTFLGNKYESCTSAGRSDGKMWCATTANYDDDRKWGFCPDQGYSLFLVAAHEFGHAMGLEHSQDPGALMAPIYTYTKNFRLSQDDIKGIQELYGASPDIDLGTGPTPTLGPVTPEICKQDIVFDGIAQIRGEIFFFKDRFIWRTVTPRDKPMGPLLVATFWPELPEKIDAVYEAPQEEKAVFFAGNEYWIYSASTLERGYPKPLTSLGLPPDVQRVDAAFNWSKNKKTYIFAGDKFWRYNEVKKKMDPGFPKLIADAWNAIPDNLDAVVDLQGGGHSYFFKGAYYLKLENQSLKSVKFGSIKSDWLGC
Exam item: assign Fulfilled to entries whose IC50 is below 100 µM and Not fulfilled to entries at or above 100 µM. Note that a value of exactly 100 µM receives Not fulfilled.

# count of solved cases: 3
N[C@@H](CNC(=O)Cc1ccccc1)Cc1ccccc1 : Not fulfilled
N[C@@H](CNC(=O)[C@@H](N)CO)Cc1ccccc1 : Not fulfilled
N[C@@H](CNC(=O)[C@@H](N)CS)Cc1ccccc1 : Fulfilled

Dear reviewer, please state whether N[C@@H](CNC(=O)/C=C/c1ccccc1)Cc1ccccc1 has IC50 strictly beneath 100 µM.
Not fulfilled

Moving on to N[C@@H](CNC(=O)Cc1ccccc1Nc1c(Cl)cccc1Cl)Cc1ccccc1
Not fulfilled
